Data origin, for the record: patent US10774071B2

Can you tell me AC50 for the items I'm about to list?
TEST SYSTEM: PD-L1 (Homo sapiens (Human), UniProt Q9NZQ7)
Sequence (Q9NZQ7 19-238): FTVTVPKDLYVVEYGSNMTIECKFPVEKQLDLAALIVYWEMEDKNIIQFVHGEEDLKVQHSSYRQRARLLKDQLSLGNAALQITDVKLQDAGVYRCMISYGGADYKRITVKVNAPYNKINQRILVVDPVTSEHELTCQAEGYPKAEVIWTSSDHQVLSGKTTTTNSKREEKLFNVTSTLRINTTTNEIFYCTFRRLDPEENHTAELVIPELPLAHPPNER
Sequence (Q9NZQ7 19-238): as above
EXPERIMENT: PD-L1/PD-L1 dimerization biochemical protein-protein interaction assay (ALPHA)
Assay type: binding
STUDY CONDITIONS: 0.5 nM His tagged PD-L1 and 0.5 nM FLAG tagged PD-L1, Table 4B, read-out: AC50 PDL1 Dimer 1 nM
Just the number in nM, nothing appended.

Problem: Requested field: AC50. Item: COc1cc(-c2cccc(-c3cccc4c3CC[C@@H]4Oc3nc(OC)c(CN(C)CC(=O)O)cc3C(F)(F)F)c2Cl)cc(F)c1CNC[C@@H]1CCC(=O)N1 [B-187]
Result: 2.86

Problem: Same for COc1nc(-c2cccc(-c3cccc4c3CC[C@@H]4Oc3nc(OC)c(C(C)N4CC(C(=O)O)C4)cc3C(F)(F)F)c2Cl)ccc1CNC[C@@H]1CCC(=O)N1 (stereo partly drawn) [B-119]
Result: 24.5

Problem: Same for COc1nc(-c2cccc(-c3cccc4c3CC[C@@H]4Oc3nc(OC)c(CN4CC(C(=O)O)C4)cc3Cl)c2Cl)ccc1CN1CC(C)(O)C1 [B-100]
Result: 103

Problem: Same for COc1nc(O[C@H]2CCc3c(-c4cccc(-c5cnc([C@H](C)NC[C@@H]6CCC(=O)N6)c(OC)n5)c4Cl)cccc32)c(Cl)cc1CN1CC[C@@H](C(=O)O)C1 [B-91]
Result: 33.8

Problem: Same for COc1nc(-c2cccc(-c3cccc4c3CC[C@@H]4Oc3nc(OC)c(CN4CC(C(=O)O)C4C)cc3Cl)c2Cl)ccc1CNC[C@@H]1CCC(=O)N1 (stereo partly drawn) [B-9]
Result: 19.2

Problem: Same for COc1nc(-c2cccc(-c3cccc4c3CC[C@@H]4Oc3nc(OC)c(CN4C5CCC4(C(=O)O)CC5)cc3C(F)(F)F)c2Cl)ccc1CN1CC2(CCC(=O)N2)C1 [B-227]
Result: 3.12

###

TEST SYSTEM: PD-L1 (Homo sapiens (Human), UniProt Q9NZQ7)
EXPERIMENT: PD-L1/PD-L1 dimerization biochemical protein-protein interaction assay (ALPHA)
Assay type: binding
STUDY CONDITIONS: 0.5 nM His tagged PD-L1 and 0.5 nM FLAG tagged PD-L1, Table 4B, read-out: AC50 PDL1 Dimer 1 nM
REPORTED METRIC: AC50
Kindly write the number and append the unit.

Problem: Requested field: AC50. Item: COc1nc(O[C@H]2CCc3c(-c4cccc(-c5ccc(CNC[C@@H]6CCC(=O)N6)c(OCC#N)n5)c4Cl)cccc32)c(C(F)(F)F)cc1CN1CC2(C(=O)O)CCC1CC2 [B-126]
Result: 0.00335 µM

Problem: Same for COc1nc(O[C@H]2CCc3c(-c4cccc(-c5cnc(CNC[C@@H]6CCC(=O)N6)c(OC)n5)c4C)cccc32)c(Cl)cc1CN1CC2(C(=O)O)CCC1CC2 [B-80]
Result: 0.0469 µM

Problem: Same for COc1nc(-c2cccc(-c3cccc4c3CC[C@@H]4Oc3cnc(CN4CC[C@@H](C(=O)O)C4)c(OC)n3)c2Cl)ccc1CNC[C@@H]1CCC(=O)N1 [B-156]
Result: 0.324 µM

###

TEST SYSTEM: PD-L1 (Homo sapiens (Human), UniProt Q9NZQ7)
EXPERIMENT: PD-L1/PD-L1 dimerization biochemical protein-protein interaction assay (ALPHA)
Assay type: binding
STUDY CONDITIONS: 0.5 nM His tagged PD-L1 and 0.5 nM FLAG tagged PD-L1, Table 4B, read-out: AC50 PDL1 Dimer 1 nM
Can you tell me AC50 for the items I'm about to list?
Just the number in nM, nothing appended.

Problem: Requested field: AC50. Item: COc1nc(-c2cccc(-c3cccc4c3CC[C@@H]4Oc3nc(OC)c(CN4CC5(C(=O)O)CCC4CC5)cc3Cl)c2Cl)ccc1CN[C@@H]1CCC[C@@H]1O [B-52]
Result: 46.4

Problem: Same for COc1nc(-c2cccc(-c3cccc4c3CC[C@@H]4Oc3nc(OC)c(CN(C)CC(=O)O)cc3Cl)c2Cl)ccc1CNC[C@@H]1CCC(=O)N1 [B-173]
Result: 9.94

Problem: Same for COc1nc(-c2cccc(-c3cccc4c3CC[C@@H]4Oc3nc(OC)c(CN4C[C@@H]5C[C@]5(C(=O)O)C4)cc3Cl)c2Cl)ccc1CNC[C@@H]1CCC(=O)N1 [B-95]
Result: 36.2

Problem: Same for COc1nc(-c2cccc(-c3cccc4c3CC[C@@H]4Oc3nc(OC)c(CN[C@H](C(=O)O)C(C)C)cc3C(F)(F)F)c2Cl)ccc1CN[C@H]1C[C@](C)(O)C1 [B-212]
Result: 17.5

Problem: Same for COc1nc(-c2cccc(-c3cccc4c3CC[C@@H]4Oc3nc(OC)c(CNC4(C(=O)O)CC4)cc3C(F)(F)F)c2Cl)ccc1CN1CC2(CNC(=O)C2)C1 [B-169]
Result: 11.1

Problem: Same for COc1nc(-c2cccc(-c3cccc4c3CC[C@@H]4Oc3nc(OC)c(CN4CC5CCC4C(C(=O)O)C5)cc3Cl)c2Cl)ccc1CNC[C@@H]1CCC(=O)N1 (stereo partly drawn) [B-98]
Result: 54.3

###

Can you tell me pIC50 for the items I'm about to list?
TEST SYSTEM: PD-1/PD-L1 (Homo sapiens (Human))
EXPERIMENT: PD-1/PD-L1 biochemical protein-protein interaction assay (ALPHA)
Type: binding
STUDY CONDITIONS: 0.3 nM His tagged PD-L1, 2.5 nM biotinylated Fc-PD-1, Table 3B, read-out: IC50 PD-L1-PD1
Scale: pIC50 equals -log10([C]), with [C] in mol/L.

Problem: Param readout= pIC50; system= PD-1/PD-L1 (Homo sapiens (Human)); entry= "COc1nc(O[C@H]2CCc3c(-c4cccc(-c5cc(C)c(CNC[C@@H]6CCC(=O)N6)c(OC)n5)c4Cl)cccc32)c(C)cc1CNC(C)(C)C(=O)O" ; returns value.
Result: 10.19

Problem: Same for "COc1cc(-c2cccc(-c3cccc4c3CC[C@@H]4Oc3nc(OC)c(CN4CC(C(=O)O)C4)cc3Cl)c2Cl)cc(F)c1CNC[C@@H]1CCC(=O)N1"
Result: 10.19

Problem: Same for "COc1nc(-c2cccc(-c3cccc4c3CC[C@@H]4Oc3nc(OC)c(CN4C[C@@H]5CCC[C@]5(C(=O)O)C4)cc3Cl)c2Cl)ccc1CNC[C@@H]1CCC(=O)N1"
Result: 10.19

###

TEST SYSTEM: PD-L1 (Homo sapiens (Human))
EXPERIMENT: PD-L1/PD-L1 dimerization biochemical protein-protein interaction assay (ALPHA)
Format: binding
STUDY CONDITIONS: 0.5 nM His tagged PD-L1 and 0.5 nM FLAG tagged PD-L1, Table 4A, read-out: AC50 PDL1 Dimer 1 nM
REPORTED METRIC: AC50 (nM)
Just the number in nM, nothing appended.

Problem: Requested field: AC50. Item: "COc1cc(N[C@H]2CCc3c(-c4cccc(-c5ccc(CNC[C@@H]6CCC(=O)N6)c(OC)n5)c4Cl)cccc32)c(C(F)(F)F)nc1CN1CC[C@@](C)(C(=O)O)C1"
Result: 12.6

Problem: Same for "COc1nc(-c2cccc(-c3cccc4c3CC[C@@H]4Nc3nc(OC)c(CN)nc3C(F)(F)F)c2Cl)ccc1CNC[C@@H]1CCC(=O)N1"
Result: 13.9

Problem: Same for COc1cc(-c2cccc(-c3cccc4c3CC[C@@H]4Nc3nc(OC)c(CNCC(=O)O)nc3C(F)(F)F)c2Cl)ccc1CNC1CC(O)(CF)C1 (stereo partly drawn)
Result: 6.64

Problem: Same for "COc1nc(-c2cccc(-c3cccc4c3CC[C@@H]4Nc3nc(OC)c(CN4CCC5CC4(C(=O)O)C5)cc3C(F)(F)F)c2Cl)ccc1CN[C@H]1C[C@](C)(O)C1"
Result: 9.38

Problem: Same for "COc1nc(-c2cccc(-c3cccc4c3CC[C@@H]4Nc3nc(OC)c(CN4C[C@H](C)C[C@H]4C(=O)O)nc3C(F)(F)F)c2Cl)ccc1CNC[C@@H]1CCC(=O)N1"
Result: 30.2

Problem: Same for "COc1nc(-c2cccc(-c3cccc4c3CC[C@@H]4Nc3nc(OC)c(CN4C[C@H](C)C[C@H]4C(=O)O)cc3C(F)(F)F)c2Cl)ccc1CNC[C@@H]1CCC(=O)N1"
Result: 13.5

###

TEST SYSTEM: PD-L1 (Homo sapiens (Human))
EXPERIMENT: PD-L1/PD-L1 dimerization biochemical protein-protein interaction assay (ALPHA)
Assay type: binding
STUDY CONDITIONS: 0.5 nM His tagged PD-L1 and 0.5 nM FLAG tagged PD-L1, Table 4B, read-out: AC50 PDL1 Dimer 1 nM
REPORTED METRIC: AC50 (nM)
Just the number in nM, nothing appended.

Problem: Requested field: AC50. Item: "COc1cc(O[C@H]2CCc3c(-c4cccc(-c5ccc(CNC[C@@H]6CCC(=O)N6)c(OC)n5)c4Cl)cccc32)c(C(F)(F)F)cc1CN1CC[C@H](C(=O)O)C1"
Result: 24.6

Problem: Same for "COc1nc(-c2cccc(-c3cccc4c3CC[C@@H]4Oc3nc(OCc4cncc(Cl)c4)c(CNC4(C(=O)O)CC4)cc3Cl)c2Cl)ccc1CNC[C@@H]1CCC(=O)N1"
Result: 12.9

Problem: Same for "COC(=O)[C@@H]1CCN(Cc2ncc(O[C@H]3CCc4c(-c5cccc(-c6ccc(CNC[C@@H]7CCC(=O)N7)c(OC)n6)c5Cl)cccc43)nc2OC)C1"
Result: 1420
